molecular target: Vesicular acetylcholine transporter (Homo sapiens, UniProt Q16572); test: Binding affinity to VAchT
Sequence (Q16572 whole entry): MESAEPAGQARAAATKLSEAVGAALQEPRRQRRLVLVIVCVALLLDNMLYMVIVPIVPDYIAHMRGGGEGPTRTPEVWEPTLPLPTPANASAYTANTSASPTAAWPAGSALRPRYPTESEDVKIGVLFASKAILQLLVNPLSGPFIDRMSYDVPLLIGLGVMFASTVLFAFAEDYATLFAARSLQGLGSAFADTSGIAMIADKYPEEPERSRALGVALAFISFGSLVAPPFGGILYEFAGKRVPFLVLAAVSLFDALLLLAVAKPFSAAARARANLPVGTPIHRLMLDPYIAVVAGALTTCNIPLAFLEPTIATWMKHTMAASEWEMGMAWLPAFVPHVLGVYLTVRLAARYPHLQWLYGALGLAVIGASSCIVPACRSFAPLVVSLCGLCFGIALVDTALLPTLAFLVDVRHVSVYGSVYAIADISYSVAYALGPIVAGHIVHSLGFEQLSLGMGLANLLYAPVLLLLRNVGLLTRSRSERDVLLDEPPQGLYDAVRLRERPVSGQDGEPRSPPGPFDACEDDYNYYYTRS
Listing of entries alongside the reported Ki.
Express the result in nM but write the number alone.

CCN(C(=O)C[18F])c1cccc2c1C[C@@H](N1CCC(c3ccccc3)CC1)[C@H](O)C2 | 0.32

Asked: Look up Ki for this compound: O[C@@H]1CCN(Cc2ccc([18F])cc2)C[C@H]1N1CCC(c2ccccc2)CC1 (racemic)
Given back: 0.44

====

biological target: Vesicular acetylcholine transporter (Rattus norvegicus); assay: Displacement of (-)-[3H]vesamicol from rat VAchT transfected in rat PC12 cells after 2 hrs by scintillation counting
Sequence (Q62666 whole entry): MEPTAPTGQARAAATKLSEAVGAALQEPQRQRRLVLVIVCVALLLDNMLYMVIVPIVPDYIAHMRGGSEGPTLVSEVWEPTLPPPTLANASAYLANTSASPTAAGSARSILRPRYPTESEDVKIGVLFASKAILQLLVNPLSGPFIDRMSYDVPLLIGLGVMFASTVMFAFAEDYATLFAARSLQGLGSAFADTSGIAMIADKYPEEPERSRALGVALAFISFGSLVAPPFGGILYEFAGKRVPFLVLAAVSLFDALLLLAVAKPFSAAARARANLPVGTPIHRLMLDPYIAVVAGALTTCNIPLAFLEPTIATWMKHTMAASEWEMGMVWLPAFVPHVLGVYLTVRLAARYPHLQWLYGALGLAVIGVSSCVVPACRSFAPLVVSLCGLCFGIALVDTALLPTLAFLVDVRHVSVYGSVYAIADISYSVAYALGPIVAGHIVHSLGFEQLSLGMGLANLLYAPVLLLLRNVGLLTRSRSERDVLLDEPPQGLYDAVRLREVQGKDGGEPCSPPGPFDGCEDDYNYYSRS
Listing of entries alongside the reported Ki.
Express the result in µM but write the number alone.

O=C(c1ccc(F)cc1)c1cc2c([nH]1)C[C@@H](O)[C@H](N1CCC(c3ccccc3)CC1)C2 (racemic) | 7.32

Proceed to the following item.
Asked: Look up Ki for this compound: O=C(c1ccc(F)cc1)c1cc2c([nH]1)C[C@@H](N1CCC(c3ccccc3)CC1)[C@H](O)C2 (racemic)
Given back: 0.312
